src = patent US20250144067A1

Item-by-item account of Complete Media
Test system: NCI-H292 lung cancer cells
Experiment: FDA drug screening, complete media vs cholesterol-free media with simvastatin (TABLE 2)
Format: cell-based, human
Settings: NCI-H292 cells, FDA library drug in complete media
Structures can show the parent of a compound that is named as a salt.
The response must contain the number and no unit.

compound	tgt	Complete Media
COc1cc(NS(=O)(=O)c2ccc(N)cc2)ncn1	NCI-H292 lung cancer cells	0.7465
OC(Cn1cncn1)(Cn1cncn1)c1ccc(F)cc1F	NCI-H292 lung cancer cells	0.9392
CC1(C)C(C=C(Cl)Cl)C1C(=O)OCc1cccc(Oc2ccccc2)c1 (centres unmarked)	NCI-H292 lung cancer cells	0.8994
CN(C)CCCC1(c2ccc(F)cc2)OCc2cc(C#N)ccc21 (centres unmarked) [Citalopram (hydrobromide)]	NCI-H292 lung cancer cells	0.8476

Consider now this further compound.
Complete Media measured on COc1cc(NS(C)(=O)=O)ccc1Nc1c2ccccc2nc2ccccc12 [Amsacrine (hydrochloride)] = 0.3873
